target: Neu5Ac(a2-3)Gal(b1-4)GlcNAc(b1-3)Gal(b1-4)[Fuc(a1-3)]GlcNAc; experiment: glycan array binding signal (z-score within array); higher = stronger binding; settings: glycan notation: IUPAC condensed, linker removed
This is one part of a sample in which the strongest signals are shown more often than they occur.
Observable: glycan array binding signal (z-score)
Just the number, please.

Binder: CCL1 (Coprinopsis cinerea) (protein) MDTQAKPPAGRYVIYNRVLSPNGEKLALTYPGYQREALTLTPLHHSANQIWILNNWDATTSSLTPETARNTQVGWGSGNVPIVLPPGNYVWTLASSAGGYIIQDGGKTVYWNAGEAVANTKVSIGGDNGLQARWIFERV
Test value: -0.148
//
Binder: CML1 (Coprinopsis cinerea) (protein) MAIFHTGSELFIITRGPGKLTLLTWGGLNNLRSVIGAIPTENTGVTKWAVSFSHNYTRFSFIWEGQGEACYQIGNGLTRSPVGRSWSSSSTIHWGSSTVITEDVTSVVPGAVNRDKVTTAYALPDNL
Test value: -0.341
//
Binder: ERGIC1-EDTA (Homo sapiens), Q969X5 (protein) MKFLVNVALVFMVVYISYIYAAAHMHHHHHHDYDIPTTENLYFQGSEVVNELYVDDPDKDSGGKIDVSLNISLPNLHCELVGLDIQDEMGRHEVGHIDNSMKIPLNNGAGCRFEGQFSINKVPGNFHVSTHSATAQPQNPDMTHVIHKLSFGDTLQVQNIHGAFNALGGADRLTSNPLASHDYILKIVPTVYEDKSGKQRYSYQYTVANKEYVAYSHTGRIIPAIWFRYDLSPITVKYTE
Test value: -0.82

Entry under review: SCA (Schizophyllum commune) (protein) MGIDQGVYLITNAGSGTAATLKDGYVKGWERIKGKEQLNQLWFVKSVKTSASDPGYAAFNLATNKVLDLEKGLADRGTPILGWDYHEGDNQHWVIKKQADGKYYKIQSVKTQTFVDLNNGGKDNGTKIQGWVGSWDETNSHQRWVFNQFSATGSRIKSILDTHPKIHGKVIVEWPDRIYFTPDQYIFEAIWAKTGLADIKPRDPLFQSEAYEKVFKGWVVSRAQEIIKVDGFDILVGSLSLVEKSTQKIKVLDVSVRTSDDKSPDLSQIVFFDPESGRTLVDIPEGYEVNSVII . Reported glycan array binding signal (z-score)?
-0.164

Also need RsaA-N-term (Caulobacter crescentus), P35828 (protein) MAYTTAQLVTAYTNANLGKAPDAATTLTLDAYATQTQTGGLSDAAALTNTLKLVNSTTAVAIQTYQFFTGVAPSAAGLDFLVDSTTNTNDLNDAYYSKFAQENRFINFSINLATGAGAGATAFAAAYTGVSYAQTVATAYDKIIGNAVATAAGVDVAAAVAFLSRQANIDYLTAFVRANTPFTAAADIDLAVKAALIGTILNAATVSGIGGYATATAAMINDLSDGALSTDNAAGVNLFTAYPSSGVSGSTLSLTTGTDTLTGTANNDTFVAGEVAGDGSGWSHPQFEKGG , thanks.
-0.112

Also need RNase 1 (Bos taurus), P61823 (protein) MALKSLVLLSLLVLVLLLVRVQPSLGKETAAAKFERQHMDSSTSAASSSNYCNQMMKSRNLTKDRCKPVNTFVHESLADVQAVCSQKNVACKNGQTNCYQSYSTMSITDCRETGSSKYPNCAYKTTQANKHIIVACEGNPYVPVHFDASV , thanks.
-0.22
